# ASSAY_INFO: Cytotoxicity against mouse J774A1 cells after 72 hrs by MTT assay
# Type: cell-based, J774.A1
PARAMETER: CC50 at 72 h

| COMPOUND | MEASURED_VALUE |
| --- | --- |
| CC(C)c1ccc(C(C(=O)NC(C)(C)C)N(C(=O)c2cccc(Cl)c2)c2ccc(C3(C)NC(=O)c4ccccc4N3)cc2)cc1 (stereo not drawn) | > 400 µM |
| COc1cc(-c2cc(-c3ccc(C4NC(=O)c5ccccc5N4)cc3)nc(N)n2)cc(OC)c1OC (stereo not drawn) | 103 µM |
| CN1CCN(c2ccc(-c3cc(-c4ccc(C5NC(=O)c6ccccc6N5)cc4)nc(N)n3)cc2)CC1 (stereo not drawn) | 10.2 µM |
| CC1(c2ccc(Nc3nc(N4CCc5ccccc5C4)nc(N4CCc5ccccc5C4)n3)cc2)NC(=O)c2ccccc2N1 (stereo not drawn) | > 400 µM |
| COc1cccc(-c2cc(-c3ccc(C4NC(=O)c5ccccc5N4)cc3)nc(N)n2)c1OC (stereo not drawn) | > 400 µM |
| CC(C)(C)NC(=O)C(c1ccc(Cl)cc1)N(C(=O)c1cccc(Cl)c1)c1ccc(C2(C)NC(=O)c3ccccc3N2)cc1 (stereo not drawn) | > 400 µM |
| CC(C)c1ccc(C(Nc2ccc(C3(C)NC(=O)c4ccccc4N3)cc2)c2nnnn2C(C)(C)C)cc1 (stereo not drawn) | > 400 µM |
| Nc1nc(-c2ccc(Br)cc2)cc(-c2ccc(C3NC(=O)c4ccccc4N3)cc2)n1 (stereo not drawn) | 125 µM |

# credit: ChEMBL document CHEMBL2380205
